# assayComment: Pharmacokinetic parameters after oral or intravenous administration
# Type: in vivo
# testContext: rat, plasma; rats, Oral (PO), 100 mg/kg
parameterMeasured: Tmax (min)

compound: O=C(Cc1c[nH]c2ccc(Cl)cc12)Nc1nc2ccccc2s1 [Comparative Example 1, reference compound]
testResult: 30

====

# assayComment: Pharmacokinetic parameters after oral or intravenous administration
# Type: in vivo
# testContext: rat, plasma; rats, Oral (PO), 50 mg/kg
# Text: […]

itemSmiles: O=C(Cc1c[nH]c2ccc(Cl)cc12)Nc1nc2ccc(N3CCOCC3)cc2s1
Tmax / h: 4

====

# assayComment: Pharmacokinetic parameters after oral or intravenous administration
# Format: in vivo
# testContext: rat, plasma; rats, Intravenous (IV), 1 mg/kg; read-out: Vdss
parameterMeasured: Vd

molecule: O=C(Cc1c[nH]c2ccc(Cl)cc12)Nc1nc2ccc(N3CCOCC3)cc2s1
testResult: 0.924 L/kg
//
molecule: O=C(Cc1c[nH]c2ccc(Cl)cc12)Nc1nc2ccccc2s1 [Comparative Example 1, reference compound]
testResult: 0.311 L/kg
